Hello, the source for this data is patent US7632845B2, in case you need it.

- target.of.assay: ERβ (Homo sapiens)
- Construct: made in house; host or cells: E. coli
- Sequence (Q92731 264-498 limits assumed): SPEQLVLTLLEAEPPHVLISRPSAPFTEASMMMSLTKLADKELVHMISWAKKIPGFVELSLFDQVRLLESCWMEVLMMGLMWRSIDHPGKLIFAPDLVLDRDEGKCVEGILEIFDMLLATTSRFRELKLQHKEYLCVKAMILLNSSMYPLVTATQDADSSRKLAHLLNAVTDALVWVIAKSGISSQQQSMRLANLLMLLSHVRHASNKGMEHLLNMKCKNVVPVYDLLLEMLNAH
- assay.info: Competition with [3H]-17β-estradiol for ERβ ligand binding domain
- experimental.parameters: receptor selectivity, ratio ERα IC50 / ERβ IC50
endpoint.label: α/β

compound=C=Cc1cc(-c2ccc(O)c(F)c2)nc2c(Cl)cc(O)cc12 reported_result=79

(P) N#Cc1cc(O)cc2c(Br)cc(-c3ccc(O)c(F)c3)nc12
(Q) C#Cc1cc(-c2ccc(O)c(F)c2)nc2ccc(O)cc12 [Cpd 14b]
(R) CCc1cc(-c2ccc(O)c(F)c2)nc2ccc(O)cc12 [Cpd 12b]
input: Sequence the entries by α/β, beginning with the highest number. Note for the reader: the ranking is given by listing the labels in the order requested.
output: Q, P, R

(I) Oc1cc(Br)c2nc(-c3ccc(O)c(F)c3)cc(Cl)c2c1
(II) Oc1ccc(-c2ccc3c(Cl)c(O)ccc3n2)cc1
input: // compare: I vs II , metric α/β, want the smaller Write down the label attached to your selection.
output: II
(II: 22, I: 57)

(a) N#Cc1ccc(-c2cc(-c3ccc(O)c(F)c3)nc3c(Cl)cc(O)cc23)cc1
(b) N#Cc1c(Cl)c(-c2ccc(O)c(F)c2)nc2ccc(O)cc12
input: // compare: a vs b , metric α/β, want the smaller Write down the label attached to your selection.
output: b

(I) Oc1ccc(-c2cc(I)c3cc(O)ccc3n2)cc1 [Cpd 8a, 2-(4-Hydroxyphenyl)-4-iodoquinolin-6-ol]
(II) C#Cc1cc(-c2ccc(O)c(F)c2)nc2c(C#N)cc(O)cc12
input: Between the entries labelled I and II , which has a larger α/β value on record? Write down the label attached to your selection.
output: II
(II: 67, I: 43)
